- Tested on: MS2 coat protein
- assay: apparent KD of MS2 coat protein; designed switch direction (-1 OFF switch, 1 ON switch): -1; higher = weaker reporter binding
- condition: Eterna round: R98; input ligand: none
// reported apparent KD of MS2 coat protein for each item listed
A number alone suffices; assume µM.

sequence_record	apparent KD of MS2 coat protein / µM
CUGUGACGGAUCCAGAAUUACAACAUGAGGAUCACCCAUGUGCAGGAUAUCGGGUUGAUAGGCGCCGAGAAGGGUAUGAUCACG [Ex NG2 #37]	0.08

Recorded apparent KD of MS2 coat protein for GAACUCACGGCAUGCAUAUAAGCACAUGAGGAUCACCCAUGUCAGGAUAUCCACGGUCGUGCUUCGGAGAAGGGACAUGAGGCG [Lainxe] , please?
0.0517

Recorded apparent KD of MS2 coat protein for AAUAUAAAGAGCUGGCUUCUAAUAACAUGAGGAUCACCCAUGUAGGAUAUCAGCACGAUAAGUGCUGAGAAGGACAUCCAGCUC [Denovo 53] , please?
0.0144

====

- Test system: K4 kissing-loop RNA reporter;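 further: bound reporter read as fluorescence of individual clusters on recovered sequencing chips by microscopy, with normalized cluster intensities fitted with a binding model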
- assay: apparent KD of K4 kissing-loop reporter; higher = weaker reporter binding
- condition: Eterna round: R107; input ligand: theophylline 20 uM
measured_endpoint: apparent KD of K4 kissing-loop reporter (nM)
A number alone suffices; assume nM.

Which apparent KD of K4 kissing-loop reporter is reported with K4 kissing-loop RNA reporter for this entry: GUAUCGCUAGGAGGAUAUUCCGUUUUUCAUAGAAAUGGCUAUGCGGAGUGAUGUUCCGAUUUACCGGAAGAAGGCCUAGUGAUAC [FMN B 23] ?
142

Which apparent KD of K4 kissing-loop reporter is reported with K4 kissing-loop RNA reporter for this entry: CGUGAAGACCAGAGGUGAUGUAUAGUAUCGCGAGGACCGGUACGGCCGCCACUCGUGAAGAGAAAGGAGUGAUGUUCCGUAAUGG [C12] ?
326

Which apparent KD of K4 kissing-loop reporter is reported with K4 kissing-loop RNA reporter for this entry: CCUGUGUGUGAAGGAUAUAUUUCGCAUUAAAACUAGUGAUGUUGGUAAAUGGCACAAUCCGUAGCAAUAGAAGGUCACUCCGGAA [theeternabot_sameState_KL_FMN_B_22] ?
498

Which apparent KD of K4 kissing-loop reporter is reported with K4 kissing-loop RNA reporter for this entry: UAAUUUAUCGCAGGAUAUAGCCAUAAACCGGUCCUAAGGGACCUUCUGGGCAGUGAUGUUGCCCGGCUAGAAGGGCGAGUUCACC [Anenlagema] ?
103

Which apparent KD of K4 kissing-loop reporter is reported with K4 kissing-loop RNA reporter for this entry: `UGACUGGACUGAAGGAGCGCUUAACUCCUAGUGAUGUUAGGACAACGAGACAAAGUCUCGAAGCAGGUAGGUCGCAGUCUAGUCU` ?
198

Which apparent KD of K4 kissing-loop reporter is reported with K4 kissing-loop RNA reporter for this entry: UUGUGCAGCAAACGAGUGAUGUUCGACGAUACCAGCCUCGAUAGAGGCCCUUGGCAGCGUAAUAAUCACAGCCAAGGGCUGCACU [#SwitchBubble 4] ?
774

Which apparent KD of K4 kissing-loop reporter is reported with K4 kissing-loop RNA reporter for this entry: AAGGGCAGGACUUCCUUGCCGGAUAGAGAUACCAGCCCAGCAAAGGGCCCUUGGCAGCUCACUGACCUCAGUGAUGUUGAGGUUC [Xebisoer] ?
272

Which apparent KD of K4 kissing-loop reporter is reported with K4 kissing-loop RNA reporter for this entry: GUGCGCGCGGCGGCCGCCACUCGCAUGAGAGUGAUGUUCUCGGGACUGACGCAAGUCAGUCAUGUGAGGACCGGGCCGGGCUGCG [#2 Same State - Tryptophan B Attempt #12 (HarryS)] ?
769

Which apparent KD of K4 kissing-loop reporter is reported with K4 kissing-loop RNA reporter for this entry: GAGAUAGAGGCGGCCGCCACUAGUGAUGUUAGUGAUGUUAGAUAGAGAAUAGAACAGAGGUAGGAUAGGACCGGGCCAGAUAGAG [whbob_SS_Tryp_B_w31] ?
77

Which apparent KD of K4 kissing-loop reporter is reported with K4 kissing-loop RNA reporter for this entry: GGAUCCACCAGUGAUGUUGGAGAAAACUCCAAGGAUAUGACGAAAGUCAGAAGGUGGUAGACUGGACAAAGUCCGGUCGGAUCCA [FmnA 23 #SwitchBubble #K4Early] ?
68.1

Which apparent KD of K4 kissing-loop reporter is reported with K4 kissing-loop RNA reporter for this entry: CCAUCGCUAUUCGAUACCAGCUACUUAGUGAUGUUAAGUUAAAAUCAAUUGUAGAUUGAAAGCCCUUGGCAGCGAAUAGUGAUGG [Theophylline B K4 21] ?
83.8

Which apparent KD of K4 kissing-loop reporter is reported with K4 kissing-loop RNA reporter for this entry: `GCCGUACGCAUGGAUACCAGCUACUAGAGUGAUGUUCUAUGGCCCUGCCAAUGGAGCUGUAGCCCUUGGCAGCCAUGCGUACGGC` ?
122

====

- Tested on: MS2 coat protein
- assay: apparent KD of MS2 coat protein; designed switch direction (-1 OFF switch, 1 ON switch): -1; higher = weaker reporter binding
- condition: input ligand: microRNA oligo, concentration not stated
// reported apparent KD of MS2 coat protein for each item listed
The answer should read as a number with its unit following.

sequence_record	apparent KD of MS2 coat protein
UUCGUGCAGCUUUGCUGUACGCGUACAUGAGGAUCACCCAUGUAGGAUAUGGUACGCAAAGCGUGCUAGAAGGAUAUGGAGAGG [Mat - Exclusion NG 3 - Mod of JL - D81] (Eterna round: R96, puzzle: Exclusion NG 3)	0.00808 µM

Recorded apparent KD of MS2 coat protein for GUUUUAUAUGAAGGAUAUACUUAACAUGAGGAUCACCCAUGUGGUGUUGUGAGUGAGUGAGUUUAGUAGAAGGUCAAUUAUUUU [JMF's solution 33] (Eterna round: R96, puzzle: Exclusion NG 2) , please?
0.174 µM

Recorded apparent KD of MS2 coat protein for AACCUAAUGCGAGGAUAUACUGAGACGUACAGUCGUCAGACAUGAGGAUCACCCAUGUACGCCUCGUAGAAGGCGCGUGACUAA [Bearareus] (Eterna round: R96, puzzle: Exclusion NG 2) , please?
0.0134 µM

Recorded apparent KD of MS2 coat protein for CCCGUCGAUGUAGGAUAUGCCCGGGUCUCCCGGGCAGAAGGACAUGAGGAUCACCCAUGUUCAUGAGGAUCACCCAUGAAUGGG [Double but mutated MS2] (Eterna round: R96, puzzle: Exclusion NG 1) , please?
0.0121 µM

Recorded apparent KD of MS2 coat protein for CAUUGUUACGGAGGAUAUCGUAUUGAGAUACUAUGAGAAGGCCGAAUAAACAUGAGGAUCACCCAUGUGAGACGGAUGCUUGUG [Ex NG1 #35] (Eterna round: R96, puzzle: Exclusion NG 1) , please?
0.0149 µM

====

- Test system: MS2 coat protein
- assay: apparent KD of MS2 coat protein; designed switch direction (-1 OFF switch, 1 ON switch): -1; higher = weaker reporter binding
- condition: input ligand: none
Is apparent KD of MS2 coat protein at least 30 nM? Then yes. If not, no.

Completed entries (count: 3):
sequence_record	assigned_class
AGUAACUCAAGAGGAUAUCACAUGAGGAUCACCCAUGUAUAGCGCGCUACGCUAGUCCUCGUAUUUGAGAAGGUUUGAUAAAUG [Quve] (Eterna round: R96, puzzle: Exclusion NG 2)	no
CCAACCAGAGGAUAUGCGCAUAGAUCAGACUUUGUUUCUUAACAUGAGGAUCACCCAUGUAGAAGGCUGUAACC [Ex2 #76] (Eterna round: R97, puzzle: Exclusion 2)	no
UCCUUACAUGAGGAUCACCCAUGUGAGGAUAUGAGGGUUGAUUUAAAUGGGUUGAUUUUCAGAAGGCACAUGAA [JR_Ex1_Sub062] (Eterna round: R97, puzzle: Exclusion 1)	yes

Determine whether this sequence has apparent KD of MS2 coat protein no lower than 30 nM: GGAGUGUAAGGAUAUAAGACAAGGGCUAUCGGAGCCCAAAUUUAGAAGGUACAUGAGGAUCACCCAUGUGAUGA [Eternabot (L1) Solution 5] (Eterna round: R97, puzzle: Exclusion 4)
no

Determine whether this sequence has apparent KD of MS2 coat protein no lower than 30 nM: UAUUUGCAAGCGAGAUCCCACAUGAGGAUCACCCAUGUGCUCGUCUUAUAAGGUACUGUGACGAUAGUCACGGUACC [Mat - Sensor, turn-off var - Eli Mod - D89] (Eterna round: R97, puzzle: Sensor, turn-off variant 1)
no

Determine whether this sequence has apparent KD of MS2 coat protein no lower than 30 nM: GGUAGAGUGGUAGGAUAUCCGACUGAAACAGACGGAGAAGGACCACAGUCACUGGGUCCAAAUAUAAUAAACAAUAAAUCUACC [pwkr exNG1 F6.1] (Eterna round: R96, puzzle: Exclusion NG 1)
yes

Determine whether this sequence has apparent KD of MS2 coat protein no lower than 30 nM: AGUGUCUUAGGAUAUACAUGAGGAUCACCCAUGUUAACAUUCCUUCGCGGUAUCGCAUGUAGAAGGAGGAUAUG [Eternabot (L1) Solution 68] (Eterna round: R97, puzzle: Exclusion 3)
no

Determine whether this sequence has apparent KD of MS2 coat protein no lower than 30 nM: AUGCCACAUGAGGAUCACCCAUGUGAGGAUAUGCUAGUAUUCCUAACGGCCGAUGCAGGCAGAAGGCGCUCGGG [Eternabot (L1) Solution 73] (Eterna round: R97, puzzle: Exclusion 1)
no
